test system: EKVX; assay: NCI tumour cell line growth inhibition, 48 h
Active and inactive are the calls of the source. No stated cut-off is given here; in the data, active = GI50 up to about 1.1 µM and inactive = higher.
Below: a set of entries, each annotated with reported GI50.

Some solved entries appear below for comparison.
# compound, result
rows = [
    ("Cc1ccc2c(c1)C(O)(c1ccccc1)CCS2 (configuration not stated)", "51.4 µM (inactive)"),
    ("CC(=O)n1c(=O)c2cc3c(=O)n(-c4cccc(C#N)c4)c(=O)c3cc2c1=O", "> 100 µM (inactive)"),
    ("CCC[C@H](C)C[C@H](C)C[C@H](C)/C=C(\\C)[C@@H](O)[C@@H](C)C(=O)CC", "18.8 µM (inactive)"),
    ("O=C1/C(=C\\c2ccc([N+](=O)[O-])cc2)N(S(=O)(=O)c2ccccc2)c2ncccc21", "> 10 µM (inactive)"),
    ("Cc1cc2c(cc1C)C(=O)C1(C2)Cc2c(ccc(C)c2C)C1=O (configuration not stated)", "> 100 µM (inactive)"),
]

Request: State the recorded GI50 for this entry: CCOc1ccccc1Nc1nc(C)c(C(=O)CC(=O)C(=O)Nc2ccccc2)s1
Response: 42.4 µM (inactive)

Request: State the recorded GI50 for this entry: C=C(C)[C@@H](C(=O)OC)N1C(=O)c2ccccc2C1=O
Response: > 100 µM (inactive)

Request: State the recorded GI50 for this entry: Nc1ccccc1N/C(=C\C(=O)C(Cl)(Cl)Cl)c1ccccc1
Response: 15.2 µM (inactive)

Request: State the recorded GI50 for this entry: Brc1cc2nn(-c3ccccc3)nc2c2nonc12
Response: > 100 µM (inactive)

Request: State the recorded GI50 for this entry: CC(C)(C)[Si](C)(C)OCC1OC(n2cnc3c(N)ncnc32)C(O)C1O (configuration not stated)
Response: > 100 µM (inactive)

Request: State the recorded GI50 for this entry: Cc1cc(Br)ccc1/N=N/C1C(=O)ON=C1c1ccccc1 (configuration not stated)
Response: 67 µM (inactive)

Request: State the recorded GI50 for this entry: COc1cc2c3c4[n+](cc2c(OC)c1OC)CCC4CCC3 (configuration not stated)
Response: > 100 µM (inactive)

Request: State the recorded GI50 for this entry: O=C(NO)c1coc2ccccc2c1=O
Response: > 100 µM (inactive)

Request: State the recorded GI50 for this entry: COc1c(OC)c(N)c2cc(C)c(=O)c(C)cc2c1N
Response: > 100 µM (inactive)

Request: State the recorded GI50 for this entry: COC(=O)c1ccc(/C=C2\Oc3ccccc3C2=O)cc1
Response: > 100 µM (inactive)

Request: State the recorded GI50 for this entry: O=C(O)CN1C(=O)C(Cc2ccc(O)cc2)N=C(c2cccc(O)c2)c2ccccc21 (configuration not stated)
Response: > 100 µM (inactive)

Request: State the recorded GI50 for this entry: Cc1cc2cc3ccccc3cc2c(=O)[nH]1
Response: > 10 µM (inactive)

====

tested on: U-251; experiment: NCI tumour cell line growth inhibition, 48 h
The source made the active and inactive calls. Cut-off read from the data, not from the text of the source: active = GI50 up to about 1.1 µM and inactive = higher.
Response enum: active, inactive

Field: example entries. Status: answers known.
# compound, label
records = [
    ("CC(=O)N1CCC2(C=Nc3ccccc32)CC1", "inactive"),
    ("Cc1ccc2c(c1)C(O)(c1ccccc1)CCS2 (configuration not stated)", "inactive"),
    ("N#Cc1cc(Sc2ccc(N)c(C#N)c2)ccc1N", "inactive"),
    ("COc1ccc(C2ON(c3ccccn3)CC=C2C)cc1 (configuration not stated)", "inactive"),
    ("COc1cc(OC)cc(C(=O)NC2=C(Cl)C(=O)c3ccccc3C2=O)c1", "inactive"),
]

Request: What was the test verdict on CC(O)c1cc2c(s1)C(=O)c1scc(C(C)O)c1C2=O (configuration not stated) ?
Response: active

Request: What was the test verdict on CC(C)C[C@H](NC(=O)[C@@H](Cc1cccc2ccccc12)NC(=O)N1CCOCC1)B(O)O ?
Response: inactive
